# TARGET UNDER TEST: T1, human VPAC2 receptor (human, UniProt P41587 24-438)
# T1 sequence (looked up): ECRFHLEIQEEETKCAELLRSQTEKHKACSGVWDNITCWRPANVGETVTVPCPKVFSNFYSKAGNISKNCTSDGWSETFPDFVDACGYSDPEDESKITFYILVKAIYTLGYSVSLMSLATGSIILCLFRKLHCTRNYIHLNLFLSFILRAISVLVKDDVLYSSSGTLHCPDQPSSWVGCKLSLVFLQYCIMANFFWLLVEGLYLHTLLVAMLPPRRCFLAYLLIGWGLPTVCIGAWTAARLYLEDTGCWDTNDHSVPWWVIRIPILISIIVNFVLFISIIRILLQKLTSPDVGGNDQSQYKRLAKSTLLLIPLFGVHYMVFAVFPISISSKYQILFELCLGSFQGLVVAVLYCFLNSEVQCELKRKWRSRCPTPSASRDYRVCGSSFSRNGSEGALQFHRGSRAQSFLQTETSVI
# TEST METHOD NOTES: cell-based or functional assay
Square brackets hold non-standard residues; d marks the D form. Ends that are not written are not given here. Nle = CCCC[C@H](N)C(=O)O
Quick reference for EC50 for cAMP generation, Alpha screen among some binders
Entry rule: numbers only, all in nM.

BINDER | ENDPOINT NAME | UNIT ABBREV | NUMBER
HSDAVFTENYTKLRKQ[Nle]AAKKYLNDLKQGGPSSGAPPPC (also: further groups not given here) [P277 (cyclic PEGylated VPAC2 receptor peptide agonist)] | EC50 for cAMP generation, Alpha screen | nM | 470

Now, please, on to the next binder.
Qu. Consider the binder HSDAVFTENYTKLRKQ[Nle]AAKKYLNDLKQKGGPSSGAPPPC (ends and bridges not checked; also: cyclic bridge (lactam or disulfide), places not given here, PEGylated, site not given here) [P268 (cyclic PEGylated VPAC2 receptor peptide agonist)] and give its measured EC50 for cAMP generation, Alpha screen.
Ans. 8.82

Hey, just so you know, these numbers are from patent US20090118167A1.
